System: HL-60
Assay: IncuCyte Kinetic Caspase-3/7 Apoptosis Assay
Type: cell-based
Settings: Homo sapiens, 72 hr, read-out: Compound 1-induced Apoptosis EC50
Endpoint: EC50 (nM)
One number for each entry, in nM.

Query :: Look up EC50 of O=C1CCC(N2Cc3cc(CNC(=O)C(F)(F)c4ccc(Cl)cc4)ccc3C2=O)C(=O)N1 (stereo not shown) [Compound 1] and report it.
Result :: 8

----------
Tested on: THP-1
Assay: IncuCyte Kinetic Caspase-3/7 Apoptosis Assay
Type: cell-based
Conditions: Homo sapiens, 48 hours, read-out: apoptosis EC50 48hr
Endpoint: EC50

Query :: Look up EC50 of O=C1CCC(N2Cc3cc(CNC(=O)C(F)(F)c4ccc(Cl)cc4)ccc3C2=O)C(=O)N1 (stereo not shown) [Compound 1] and report it.
Result :: > 10 µM
